Target: Endonuclease 8-like 1 (Homo sapiens) (UniProt Q96FI4);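 note: fluorescence at 594 nm from quenched duplex DNA oligonucleotides released by NEIL1 cleavage and strand separation, reported as reduction of this enzyme activity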
Sequence (Q96FI4 whole entry): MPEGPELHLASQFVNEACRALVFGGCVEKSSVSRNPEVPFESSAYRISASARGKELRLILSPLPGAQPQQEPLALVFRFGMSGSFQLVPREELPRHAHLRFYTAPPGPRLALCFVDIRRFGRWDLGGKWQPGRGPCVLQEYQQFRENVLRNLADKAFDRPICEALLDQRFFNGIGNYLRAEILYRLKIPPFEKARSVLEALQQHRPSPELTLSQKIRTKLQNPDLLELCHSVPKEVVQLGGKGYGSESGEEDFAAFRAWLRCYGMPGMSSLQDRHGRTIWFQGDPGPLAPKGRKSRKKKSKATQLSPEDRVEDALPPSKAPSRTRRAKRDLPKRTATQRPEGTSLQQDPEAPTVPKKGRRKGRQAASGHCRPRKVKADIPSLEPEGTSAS
Conditions: Compound Concentration 10.0 uM, Hit No
Description: Inhibition of NEIL1 by quantifying inhibition of NEIL1-mediated cleavage and dissociation of quenched duplex DNA oligonucleotides, measured as fluorescence at 594 nm.

{"columns": ["compoundStructure", "targetOfAssay", "inhibition [%]"],
 "data": [
  ["CCC[C@H](Oc1cc(C)c(-n2cc(C(F)(F)F)cn2)c(C)c1)c1ccc(C(=O)NCCC(=O)O)cc1", "Endonuclease 8-like 1 (Homo sapiens) (UniProt Q96FI4)", 4.69],
  ["O=C(O)c1ccc(-c2coc3ncc(-c4ccccc4)cc23)cc1Cl", "Endonuclease 8-like 1 (Homo sapiens) (UniProt Q96FI4)", 7.67],
  ["Cc1ccc(-c2cnc([C@@]3(O)CC[C@H](C(=O)O)C(C)(C)C3)s2)cc1Nc1cccc(C(F)(F)F)n1", "Endonuclease 8-like 1 (Homo sapiens) (UniProt Q96FI4)", -8.92],
  ["COc1ccc(CNC(=O)c2cc(-c3cncc(Cl)c3)cnc2-c2ccccn2)nc1OC", "Endonuclease 8-like 1 (Homo sapiens) (UniProt Q96FI4)", -8.51],
  ["Clc1ccc(OC[C@H]2CCN2)cn1", "Endonuclease 8-like 1 (Homo sapiens) (UniProt Q96FI4)", -0.584]
]}

* * *

Molecular target: G/T mismatch-specific thymine DNA glycosylase (Homo sapiens);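 note: human TDG cleavage of quenched duplex DNA oligonucleotides coupled to APE1, strand release read as fluorescence at 594 nm, inhibition of TDG activity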
Conditions: Compound Concentration 10.0 uM, Hit No
Description: Inhibition of TDG by quantifying inhibition of TDG-mediated cleavage and dissociation of quenched duplex DNA oligonucleotides, measured as fluorescence at 594 nm. To generate a functional strand incision and increase turn-over this assay is coupled to APE1.
Where a SMILES comes first, the peptide text is derived from it.
Below, each entry is listed with its recorded inhibition.
endpointLabel: inhibition (%)

{"columns": ["compound", "unitName", "observedResult"],
 "data": [
  ["O=C(O)COc1cccc(CN(Cc2ccc(-n3cccn3)cc2)S(=O)(=O)c2cccnc2)c1", "%", -2.75],
  ["Cn1cc(C(=O)O)c2ccc(N3CCC(OCc4c(-c5c(Cl)cccc5Cl)noc4C4CC4)CC3)cc21", "%", 99.9],
  ["Cc1cc(C)c(S(=O)(=O)N(Cc2ccc(-c3cccc(S(C)(=O)=O)c3)cc2)Cc2ccc(C(F)(F)F)o2)c(C)c1", "%", 97.7],
  ["Cc1ccc(-c2ccc3c(ccc4sc5c(c43)NCC(C)NC5=O)n2)cn1 (stereo unspecified)", "%", 25.8],
  ["CN1CCN(C(=O)C(C)(C)c2ccc(C(=O)Nc3cn4cc(-c5ccncc5)ccc4n3)cc2)CC1", "%", 60.5],
  ["COc1nc2ccc([C@@](O)(c3ccc(Cl)cc3)c3cncn3C)cc2c(Cl)c1Cc1ccc(-n2cccn2)cc1", "%", 42.9],
  ["COc1cc2c(CCNC(C)=O)c[nH]c2cc1Cl", "%", 4.32],
  ["OC(CN1CCC(Cc2ccc(F)cc2)CC1)c1ccc(Cl)cc1 (stereo unspecified)", "%", -8.99],
  ["NCCc1c[nH]cn1", "%", 7.61],
  ["COc1cc(/C=C/C(=O)NCCn2c(C)cc3ccccc32)cc(OC)c1OC", "%", 15.6],
  ["COc1cc(Nc2ccc([N+](=O)[O-])cc2C(=O)O)cc2ccccc12", "%", 67.3],
  ["CC(C)C[C@H](NC(=O)[C@H](CC(N)=O)NC(=O)[C@@H]1CCCN1C(=O)[C@@H](N)C(C)C)C(=O)N1CCC[C@H]1C(=O)N[C@@H](CCC(N)=O)C(=O)N[C@@H](CCCNC(=N)N)C(=O)N[C@@H](Cc1ccccc1)C(N)=O", "%", 4.58],
  ["CC(=O)Nc1c(C(C)=O)c(=O)n(C)c2nc(-c3ccc(Cl)cc3Cl)c(-c3ccc(Cl)cc3)cc12", "%", 47.2],
  ["O=C(NCCS(=O)(=O)c1ccc(C(F)(F)F)cn1)c1ccc(Cl)cc1", "%", 97.2],
  ["CCC(=O)NC[C@@H]1C[C@H]1c1cccc2c1CCO2", "%", 4.27],
  ["Cc1nc(C(=O)N2CCC[C@H]2Cc2nnc(-c3ccccc3)o2)c(-c2ccccc2F)s1", "%", 15],
  ["COc1ccc2c(O[C@@H]3C[C@H]4C(=O)N[C@]5(C(=O)O)CC5/C=C\\CCCCC[C@H](NC(=O)OC5CCCC5)C(=O)N4C3)cc(-c3csc(NC(=O)C(C)C)n3)nc2c1C (stereo partly specified)", "%", 38.5],
  ["C[C@@H]1CN(Cc2ccc(F)cc2)CCN1C(=O)COc1ccc(Cl)cc1NC(N)=O", "%", -7.21],
  ["CCc1cc2c(c(CC)n1)CCC(=O)N2Cc1ccc(-c2ccccc2-c2nnn[nH]2)cc1", "%", 13.7],
  ["N#Cc1c(O)nc(SCc2cccc(F)c2F)nc1C1CC1", "%", 26.8],
  ["CN1CCC(c2c[nH]c3ccc(O)cc23)CC1", "%", 22.5],
  ["CC(C)CCC[C@@H](C)[C@H]1CC[C@H]2[C@@H]3[C@H](O)C=C4C[C@@H](O)CC[C@]4(C)[C@H]3CC[C@]12C", "%", -0.558],
  ["CN(C)c1ccnc2sc3c(=O)n(N4CCCCCC4)cnc3c12", "%", 5.33],
  ["CCNC(=O)c1cc2c(N3CCOC[C@@H]3C)ccnc2n1C", "%", 31.4],
  ["Cc1onc(-c2ccc(F)cc2)c1COc1ccc(C(=O)N2CCS(=O)(=O)CC2)cn1", "%", 0.685],
  ["COc1ccc(-c2csc(NC(=O)[C@H]3CCCCN3S(=O)(=O)c3ccc(C)cc3)n2)cc1", "%", 5.87],
  ["Cn1cnc2c(F)c(Nc3ccc(Br)cc3Cl)c(C(=O)NOCCO)cc21", "%", 39.7],
  ["CC#CC(=O)N1CCC[C@H]1c1nc(-c2ccc(C(=O)Nc3ccccn3)cc2)c2c(N)nccn12", "%", 55.9],
  ["CN[C@@H]1Cc2cccc3[nH]c(=O)n(c23)C1", "%", 15.8],
  ["CCOC(=O)N1CCC(NS(=O)(=O)c2ccc(NC(=O)c3ccccc3C)c3ccccc23)CC1", "%", 4.53],
  ["Cc1c(C(=O)NN2CCCCC2)nn(-c2ccc(Cl)cc2Cl)c1-c1ccc(Cl)cc1", "%", 19.2],
  ["CC[C@H](C)[C@H](NC(=O)[C@H](Cc1ccc(O)cc1)NC(=O)[C@@H](NC(=O)[C@H](CCCNC(=N)N)NC(=O)[C@@H](N)CC(=O)O)C(C)C)C(=O)N[C@@H](Cc1cnc[nH]1)C(=O)N[C@H](C)C(=O)O (HELM PEPTIDE1{D.R.V.Y.I.H.[dA]}$$$$V2.0)", "%", 1.59],
  ["O=C(O)C1CN(Cc2ccc(-c3nc4cc(Cc5ccccc5F)ccc4s3)c(F)c2)C1", "%", -3.37],
  ["Cc1ccc(C(C)(O)c2nc3ccccc3s2)c(C)c1 (stereo unspecified)", "%", 14.6],
  ["CO[C@H]1/C=C/O[C@@]2(C)Oc3c(C)c(O)c4c(O)c(c(/C=N/N5CCN(C)CC5)c(O)c4c3C2=O)NC(=O)/C(C)=C\\C=C\\[C@H](C)[C@H](O)[C@@H](C)[C@@H](O)[C@@H](C)[C@H](OC(C)=O)[C@@H]1C", "%", 64],
  ["CCCCCC(O)/C=C/[C@H]1C(=O)CC(O)C1C/C=C\\CCCC(=O)O (stereo partly specified)", "%", 32]
]}
